# System: 857933-349-R-J2-PDC complex spheroids, viability
# protocol description: Anticancer human tumor 857933-349-R-J2-PDC patient-derived colon adenocarcinoma cell line growth inhibition [GQUAD]; active = viability on the fitted dose curve at most 10% of control; inactive = the rest
# recorded conditions: second compound 1 µM; first compound 10 µM
Would you mind answering with one of these outcomes? active, inactive

C#Cc1c(F)ccc2cc(O)cc(-c3ncc4c(N5CC6CCC(C5)N6)nc(OCC56CCCN5CC(F)C6)nc4c3F)c12 (stereo not given) + CN(C)c1ccc(Nc2c3ccc(NC(=O)CCN4CCCC4)cc3nc3cc(NC(=O)CCN4CCCC4)ccc23)cc1 :: inactive
COc1cc(C2c3cc4c(cc3C(OC3OC5COC(C)OC5C(O)C3O)C3COC(=O)C23)OCO4)cc(OC)c1O (stereo not given) + Cc1cnc(CNC(=O)c2c(=O)c3ccc(N4CCCN(C)CC4)nc3n3c2sc2ccccc23)cn1 :: active
CC1COCCN1c1cc(C2(S(C)(=N)=O)CC2)nc(-c2ccnc3[nH]ccc23)n1 (stereo not given) + Cc1[nH]c2ccc(F)cc2c1-c1nc2c3cccnc3c3ncccc3c2[nH]1 :: inactive

In this assay, the call recorded for C=CCn1c(=O)c2cnc(Nc3ccc(N4CCN(C)CC4)cc3)nc2n1-c1cccc(C(C)(C)O)n1 + Cc1[nH]c2ccc(F)cc2c1-c1nc2c3cccnc3c3ncccc3c2[nH]1 was what?
inactive

Status in this test for CC1COCCN1c1cc(C2(S(C)(=N)=O)CC2)nc(-c2ccnc3[nH]ccc23)n1 (stereo not given) + Cc1cnc(CNC(=O)c2c(=O)c3ccc(N4CCCN(C)CC4)nc3n3c2sc2ccccc23)cn1 ?
active

----------
# Tested on: 857933-349-R-J2-PDC complex spheroids, viability
# protocol description: Anticancer human tumor 857933-349-R-J2-PDC cell line growth inhibition [GQUAD]; active = viability on the fitted dose curve at most 10% of control; inactive = the rest
# recorded conditions: second compound 0.1 µM; first compound 1 µM
The reply should be one of these categories: active, inactive

C=CCn1c(=O)c2cnc(Nc3ccc(N4CCN(C)CC4)cc3)nc2n1-c1cccc(C(C)(C)O)n1 + Cc1[nH]c2ccc(F)cc2c1-c1nc2c3cccnc3c3ncccc3c2[nH]1 :: inactive
COc1cccc2c1C(=O)c1c(O)c3c(c(O)c1C2=O)CC(O)(C(=O)CO)CC3OC1CC(N)C(O)C(C)O1 (stereo not given) + CN(C)c1ccc(Nc2c3ccc(NC(=O)CCN4CCCC4)cc3nc3cc(NC(=O)CCN4CCCC4)ccc23)cc1 :: inactive

// return assay outcome for C=CC(=O)N1CCN(c2nc(=O)n(-c3c(C)ccnc3C(C)C)c3nc(-c4c(O)cccc4F)c(F)cc23)C(C)C1 (stereo not given) + Cc1cnc(CNC(=O)c2c(=O)c3ccc(N4CCCN(C)CC4)nc3n3c2sc2ccccc23)cn1
inactive

Given Nc1ccn(C2OC(CO)C(O)C2(F)F)c(=O)n1 (stereo not given) + Cc1cnc(CNC(=O)c2c(=O)c3ccc(N4CCCN(C)CC4)nc3n3c2sc2ccccc23)cn1 , state the outcome it received in this test.
active

----------
# Test system: 857933-349-R-J2-PDC complex spheroids, viability
# protocol description: Anticancer human tumor 857933-349-R-J2-PDC cell line growth inhibition [GQUAD];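 note: spheroids exposed to compounds for one week before readout; percent viability relative to vehicle DMSO wells taken as 100%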
# recorded conditions: second compound 3.16 µM; first compound 0.1 µM; active compounds read low
observation type: viability, T/C (%)
Please reply with the bare figure in % and do not write the unit itself.

// below: answered compounds
CCCS(=O)(=O)Nc1ccc(F)c(C(=O)c2c[nH]c3ncc(-c4ccc(Cl)cc4)cc23)c1F + CN(C)c1ccc(Nc2c3ccc(NC(=O)CCN4CCCC4)cc3nc3cc(NC(=O)CCN4CCCC4)ccc23)cc1 :: 73.5
Cc1cccc(N(C)C(=O)C2C(O)CCN2c2nc(C)cc(C(F)(F)F)c2C#N)c1 (stereo not given) + Cc1cnc(CNC(=O)c2c(=O)c3ccc(N4CCCN(C)CC4)nc3n3c2sc2ccccc23)cn1 :: 2.17
COc1ncnc(C2CC2)c1-c1ncc2cnn(Cc3ccc(-c4nc(C(F)(F)F)cn4C(C)C)cc3)c2n1 + Cc1cnc(CNC(=O)c2c(=O)c3ccc(N4CCCN(C)CC4)nc3n3c2sc2ccccc23)cn1 :: 2.35
C#Cc1c(F)ccc2cc(O)cc(-c3ncc4c(N5CC6CCC(C5)N6)nc(OCC56CCCN5CC(F)C6)nc4c3F)c12 (stereo not given) + CN(C)c1ccc(Nc2c3ccc(NC(=O)CCN4CCCC4)cc3nc3cc(NC(=O)CCN4CCCC4)ccc23)cc1 :: 75.1

Field: next compound
Give viability, T/C for the following compound: O=C(NO)c1cnc(N2CCN(S(=O)(=O)c3ccc4ccccc4c3)CC2)nc1 + Cc1cnc(CNC(=O)c2c(=O)c3ccc(N4CCCN(C)CC4)nc3n3c2sc2ccccc23)cn1
0.92

----------
Listing of entries alongside the reported viability, T/C.
# Test system: 857933-349-R-J2-PDC complex spheroids, viability
# protocol description: Anticancer human tumor 857933-349-R-J2-PDC cell line growth inhibition [GQUAD];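 note: spheroids exposed to compounds for one week before readout; percent viability relative to vehicle DMSO wells taken as 100%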
# recorded conditions: second compound 0.0316 µM; first compound 0.00999 µM; active compounds read low
# Text: DNA G-quadruplex Stabilizer Agents in Combinations in Complex Spheroids A high-throughput screen of multi-cell type tumor spheroids was designed to identify active combinations of DNA G-quadruplex stabilizer agents and targeted small molecules. […] Compounds. […] If the clinical Cmax for an agent had not been determined, the highest concentration tested was 10 microM. […]
Return type: number; implicit unit %.

CC[C@@]1(O)C(=O)OCc2c1cc1n(c2=O)Cc2cc3c(CN(C)C)c(O)ccc3nc2-1 + Cc1[nH]c2ccc(F)cc2c1-c1nc2c3cccnc3c3ncccc3c2[nH]1 :: 89.8
CC[C@@]1(O)C(=O)OCc2c1cc1n(c2=O)Cc2cc3c(CN(C)C)c(O)ccc3nc2-1 + Cc1cnc(CNC(=O)c2c(=O)c3ccc(N4CCCN(C)CC4)nc3n3c2sc2ccccc23)cn1 :: 81.6
CCc1c2c(nc3ccc(O)cc13)-c1cc3c(c(=O)n1C2)COC(=O)[C@]3(O)CC + CN(C)c1ccc(Nc2c3ccc(NC(=O)CCN4CCCC4)cc3nc3cc(NC(=O)CCN4CCCC4)ccc23)cc1 :: 55.4
Cc1[nH]c2ccccc2c1CCNCc1ccc(/C=C/C(=O)NO)cc1 + Cc1cnc(CNC(=O)c2c(=O)c3ccc(N4CCCN(C)CC4)nc3n3c2sc2ccccc23)cn1 :: 106
Cc1[nH]c2ccccc2c1CCNCc1ccc(/C=C/C(=O)NO)cc1 + Cc1[nH]c2ccc(F)cc2c1-c1nc2c3cccnc3c3ncccc3c2[nH]1 :: 97.6

# evaluate next
Give reported viability, T/C value for Cn1ncnc1[C@H]1c2n[nH]c(=O)c3cc(F)cc(c23)N[C@@H]1c1ccc(F)cc1 + CN(C)c1ccc(Nc2c3ccc(NC(=O)CCN4CCCC4)cc3nc3cc(NC(=O)CCN4CCCC4)ccc23)cc1
99.4

----------
// viability, T/C lookup, one value per entry
# System: 857933-349-R-J2-PDC complex spheroids, viability
# protocol description: Anticancer human tumor 857933-349-R-J2-PDC cell line growth inhibition [GQUAD];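 note: spheroids exposed to compounds for one week before readout; percent viability relative to vehicle DMSO wells taken as 100%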
# recorded conditions: second compound 0.0316 µM; first compound 0.0316 µM; active compounds read low
Form entry: value (%) — number only.

Look over these answered cases.
CC(C)(O)C1CCC(Nc2ccc3ncc(-c4cccc(C(F)(F)F)c4)n3n2)CC1 (stereo not given) + Cc1[nH]c2ccc(F)cc2c1-c1nc2c3cccnc3c3ncccc3c2[nH]1 :: 107
C#Cc1c(F)ccc2cc(O)cc(-c3ncc4c(N5CC6CCC(C5)N6)nc(OCC56CCCN5CC(F)C6)nc4c3F)c12 (stereo not given) + CN(C)c1ccc(Nc2c3ccc(NC(=O)CCN4CCCC4)cc3nc3cc(NC(=O)CCN4CCCC4)ccc23)cc1 :: 111
COc1ncnc(C2CC2)c1-c1ncc2cnn(Cc3ccc(-c4nc(C(F)(F)F)cn4C(C)C)cc3)c2n1 + Cc1[nH]c2ccc(F)cc2c1-c1nc2c3cccnc3c3ncccc3c2[nH]1 :: 102

Hello, please tell me recorded viability, T/C for this one: CC(C)n1c(=O)n(C)c2cnc3cc(F)c(-c4ccc(OCCCN5CCCCC5)nc4)cc3c21 + CN(C)c1ccc(Nc2c3ccc(NC(=O)CCN4CCCC4)cc3nc3cc(NC(=O)CCN4CCCC4)ccc23)cc1
108

Answer with the recorded viability, T/C of CC1COCCN1c1cc(C2(S(C)(=N)=O)CC2)nc(-c2ccnc3[nH]ccc23)n1 (stereo not given) + Cc1[nH]c2ccc(F)cc2c1-c1nc2c3cccnc3c3ncccc3c2[nH]1 only.
101

Report viability, T/C, nothing else, for this compound: O=C(NO)c1cnc(N2CCN(S(=O)(=O)c3ccc4ccccc4c3)CC2)nc1 + CN(C)c1ccc(Nc2c3ccc(NC(=O)CCN4CCCC4)cc3nc3cc(NC(=O)CCN4CCCC4)ccc23)cc1
106

----------
# Test system: 857933-349-R-J2-PDC complex spheroids, viability
# protocol description: Anticancer human tumor 857933-349-R-J2-PDC cell line growth inhibition [GQUAD];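 note: spheroids exposed to compounds for one week before readout; percent viability relative to vehicle DMSO wells taken as 100%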
# recorded conditions: second compound 3.16 µM; first compound 0.1 µM; active compounds read low
# From the text: DNA G-quadruplex Stabilizer Agents in Combinations in Complex Spheroids A high-throughput screen of multi-cell type tumor spheroids was designed to identify active combinations of DNA G-quadruplex stabilizer agents and targeted small molecules. […] Compounds. […] If the clinical Cmax for an agent had not been determined, the highest concentration tested was 10 microM. […]
Here, each record is paired with measured viability, T/C data.

Some compounds with recorded viability, T/C:
CC1COCCN1c1cc(-c2ccnn2C)c2ccnc(-c3ccn[nH]3)c2n1 (stereo unspecified) + CN(C)c1ccc(Nc2c3ccc(NC(=O)CCN4CCCC4)cc3nc3cc(NC(=O)CCN4CCCC4)ccc23)cc1 :: 71.8%
COc1cccc2c1C(=O)c1c(O)c3c(c(O)c1C2=O)CC(O)(C(=O)CO)CC3OC1CC(N)C(O)C(C)O1 (stereo unspecified) + CN(C)c1ccc(Nc2c3ccc(NC(=O)CCN4CCCC4)cc3nc3cc(NC(=O)CCN4CCCC4)ccc23)cc1 :: 76.8%
CC1COCCN1c1cc(C2(O)CC3CCC(C2)O3)c2cnn(-c3ccn[nH]3)c2n1 (stereo unspecified) + CN(C)c1ccc(Nc2c3ccc(NC(=O)CCN4CCCC4)cc3nc3cc(NC(=O)CCN4CCCC4)ccc23)cc1 :: 71.9%
O=c1[nH]cc(F)c(=O)[nH]1 + Cc1[nH]c2ccc(F)cc2c1-c1nc2c3cccnc3c3ncccc3c2[nH]1 :: 94.7%
Nc1ccn(C2OC(CO)C(O)C2(F)F)c(=O)n1 (stereo unspecified) + Cc1cnc(CNC(=O)c2c(=O)c3ccc(N4CCCN(C)CC4)nc3n3c2sc2ccccc23)cn1 :: 2.77%

Give a short answer stating reported viability, T/C for CC1COCCN1c1cc(-c2ccnn2C)c2ccnc(-c3ccn[nH]3)c2n1 (stereo unspecified) + Cc1[nH]c2ccc(F)cc2c1-c1nc2c3cccnc3c3ncccc3c2[nH]1 .
56%
